Quick list: selectivity ratio per entry.
Test: Selectivity index, ratio of CC50 for cytotoxicity against human 293T/ACE2 cells to IC50 for SARS-CoV-2 spike glycoprotein S inhibition
Format: toxicity, cell-based
Details: read-out: Selectivity Index

C[C@@H]1O[C@@H](O[C@H]2[C@H](O[C@H]3CC[C@]4(C)[C@H]5CC=C6[C@@H]7CC(C)(C)CC[C@]7(C(=O)NCc7ccccc7Br)CC[C@@]6(C)[C@]5(C)CC[C@H]4C3(C)C)O[C@H](CO)[C@@H](O[C@@H]3O[C@@H](C)[C@H](O)[C@@H](O)[C@H]3O)[C@@H]2O)[C@H](O)[C@H](O)[C@H]1O	> 8.51

Return the recorded selectivity ratio value; entry: C[C@@H]1O[C@@H](O[C@H]2[C@H](O[C@H]3CC[C@]4(C)[C@H]5CC=C6[C@@H]7CC(C)(C)CC[C@]7(C(=O)NCc7ccccc7Cl)CC[C@@]6(C)[C@]5(C)CC[C@H]4C3(C)C)O[C@H](CO)[C@@H](O[C@@H]3O[C@@H](C)[C@H](O)[C@@H](O)[C@H]3O)[C@@H]2O)[C@H](O)[C@H](O)[C@H]1O
> 15.8

Return the recorded selectivity ratio value; entry: C[C@@H]1O[C@@H](O[C@H]2[C@H](O[C@H]3CC[C@]4(C)[C@H]5CC=C6[C@@H]7CC(C)(C)CC[C@]7(C(=O)N(C)Cc7ccccc7)CC[C@@]6(C)[C@]5(C)CC[C@H]4C3(C)C)O[C@H](CO)[C@@H](O[C@@H]3O[C@@H](C)[C@H](O)[C@@H](O)[C@H]3O)[C@@H]2O)[C@H](O)[C@H](O)[C@H]1O
4.84
